Provenance of the data: patent US20240109865A1

Items are presented alongside their recorded Kd.
Molecular target: FGFR2 (Homo sapiens (Human), UniProt P21802)
Sequence (P21802 22-821): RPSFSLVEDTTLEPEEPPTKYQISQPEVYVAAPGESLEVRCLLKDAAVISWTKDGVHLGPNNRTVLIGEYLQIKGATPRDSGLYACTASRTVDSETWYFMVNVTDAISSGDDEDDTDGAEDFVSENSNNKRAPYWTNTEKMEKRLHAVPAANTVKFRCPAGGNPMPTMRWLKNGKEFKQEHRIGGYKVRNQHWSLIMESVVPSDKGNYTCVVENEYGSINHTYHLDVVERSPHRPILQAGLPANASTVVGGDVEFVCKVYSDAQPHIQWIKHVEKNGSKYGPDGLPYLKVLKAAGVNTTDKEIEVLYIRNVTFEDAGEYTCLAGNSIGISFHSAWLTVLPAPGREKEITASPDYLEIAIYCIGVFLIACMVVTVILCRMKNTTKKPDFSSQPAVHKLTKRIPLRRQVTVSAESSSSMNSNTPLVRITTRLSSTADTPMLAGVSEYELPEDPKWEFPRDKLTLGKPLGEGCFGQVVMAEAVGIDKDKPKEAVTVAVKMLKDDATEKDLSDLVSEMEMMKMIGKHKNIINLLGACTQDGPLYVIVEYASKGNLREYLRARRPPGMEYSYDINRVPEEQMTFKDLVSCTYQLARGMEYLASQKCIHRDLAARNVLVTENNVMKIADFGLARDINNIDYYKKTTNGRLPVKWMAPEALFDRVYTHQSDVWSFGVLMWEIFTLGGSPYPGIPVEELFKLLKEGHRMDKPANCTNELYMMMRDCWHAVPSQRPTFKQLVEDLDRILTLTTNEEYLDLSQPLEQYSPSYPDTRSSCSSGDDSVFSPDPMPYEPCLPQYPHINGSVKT
Test: Kinase assay, binding constants (Kd), kinase-tagged T7 phage, qPCR

Some solved cases for reference:
1) CCOC(=O)N1CCC2(CC1)CN(c1ncc(-c3n[nH]c4ccc(O[C@H](C)c5c(Cl)cncc5Cl)cc34)cn1)C2 | 100 to 300 nM
2) C[C@@H](Oc1ccc2[nH]nc(-c3cnc(N4CCC4)c(C#N)c3)c2c1)c1c(Cl)cncc1Cl | > 300 nM
3) Cc1ncc(Cl)c([C@@H](C)Oc2ccc3[nH]nc(-c4cnc(N5CC6(C5)CN(S(C)(=O)=O)C6)c(F)c4)c3c2)c1Cl | 20 to 100 nM
4) COc1cc2[nH]nc(-c3cnc(N4CC5(COC5)C4)c(C)c3)c2cc1O[C@H](C)c1c(C)cnnc1C | 1 to 20 nM
5) COc1cc2[nH]nc(-c3cnc(N4CC[C@@H](C(C)(C)O)C4)c(C#N)c3)c2cc1O[C@H](C)c1c(C)cnnc1C | 1 to 20 nM
6) Cc1ncc(Cl)c([C@@H](C)Oc2ccc3[nH]nc(-c4ccc(N5CCC[C@H]5CO)nc4)c3c2)c1Cl | 20 to 100 nM

Next compound, Kd to be filled in.
Lab note: need Kd with FGFR2 (Homo sapiens (Human), UniProt P21802) for entry COC(=O)N1CCCC2(C1)CN(c1ncc(-c3n[nH]c4ccc(O[C@H](C)c5c(Cl)cncc5Cl)cc34)cn1)C2 , please look it up.
20 to 100 nM

----------
Molecular target: FGFR3-BAIAP2L1 Ba/F3 cells (Homo sapiens, UniProt P22607)
Sequence (P22607 23-806 limits assumed, change not shown): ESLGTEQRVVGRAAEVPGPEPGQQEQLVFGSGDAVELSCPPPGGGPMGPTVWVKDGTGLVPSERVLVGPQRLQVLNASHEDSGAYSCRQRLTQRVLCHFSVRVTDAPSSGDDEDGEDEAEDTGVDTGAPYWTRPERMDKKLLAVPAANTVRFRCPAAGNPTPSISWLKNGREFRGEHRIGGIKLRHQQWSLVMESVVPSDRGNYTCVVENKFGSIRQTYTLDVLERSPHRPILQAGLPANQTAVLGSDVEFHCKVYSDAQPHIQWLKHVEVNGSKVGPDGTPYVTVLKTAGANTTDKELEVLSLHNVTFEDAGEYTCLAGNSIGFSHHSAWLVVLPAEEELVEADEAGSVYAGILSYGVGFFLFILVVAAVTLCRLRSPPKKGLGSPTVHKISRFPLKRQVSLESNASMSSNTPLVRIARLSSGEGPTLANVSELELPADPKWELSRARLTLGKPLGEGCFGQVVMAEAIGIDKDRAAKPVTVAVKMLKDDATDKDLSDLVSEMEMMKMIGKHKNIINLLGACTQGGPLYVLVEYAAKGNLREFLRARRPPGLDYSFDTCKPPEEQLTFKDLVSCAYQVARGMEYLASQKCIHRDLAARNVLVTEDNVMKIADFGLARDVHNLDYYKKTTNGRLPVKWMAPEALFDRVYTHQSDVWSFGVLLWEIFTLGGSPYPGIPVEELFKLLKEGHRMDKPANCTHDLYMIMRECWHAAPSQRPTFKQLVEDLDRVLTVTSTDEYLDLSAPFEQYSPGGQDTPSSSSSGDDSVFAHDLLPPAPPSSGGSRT
Test: Ba/F3 cell viability assay (CellTiter-Glo 2.0), FGFR3-BAIAP2L1 Ba/F3
Type: cell-based
Settings: FGFR3 > FGFR1 selectivity ratio in Ba/F3 FGFR fusion cell based assays
Measure Name: Ba/F3 FGFR1/FGFR3 Selectivity
Please state the value as a number alone, without comment.

Some solved cases for reference:
1. COC(=O)N1CCCC2(C1)CN(c1ncc(-c3n[nH]c4ccc(O[C@H](C)c5c(Cl)cncc5Cl)cc34)cn1)C2 | 8
2. C[C@@H](Oc1ccc2[nH]nc(-c3ccc(N4CC5CC(C4)N5S(C)(=O)=O)nc3)c2c1)c1c(Cl)cncc1Cl | 15
3. C[C@@H](Oc1ccc2[nH]nc(-c3ccc(N4CCN(C(=O)N5CCOCC5)CC4)nc3)c2c1)c1c(Cl)cncc1Cl | 18
4. C[C@@H](Oc1ccc2[nH]nc(-c3ccc(N4CCN(C(N)=O)CC4)nc3)c2c1)c1c(Cl)cncc1Cl | 19
5. C[C@@H](Oc1ccc2[nH]nc(-c3cnc(N4CCC5(CCS(=O)(=O)C5)C4)nc3)c2c1)c1c(Cl)cncc1Cl (some centres unmarked) | 11
6. C[C@@H](Oc1ccc2[nH]nc(-c3cnc(N4CCC5(CC4)CCS(=O)(=O)C5)c(F)c3)c2c1)c1c(Cl)cncc1Cl | 14

Param item = C[C@@H](Oc1ccc2[nH]nc(-c3cnc(N4CCN(C(=O)N(C)C)CC4)nc3)c2c1)c1c(Cl)cncc1Cl ; retrieve measured Ba/F3 FGFR1/FGFR3 Selectivity.
15

Then this molecule: Cc1ncc(Cl)c([C@@H](C)Oc2ccc3[nH]nc(-c4cnn(C5CCN(C(C)C)CC5)c4)c3c2)c1Cl
11

Then this molecule: C[C@@H](Oc1ccc2[nH]nc(-c3cnc(N4CCC5(CCCN5C)CC4)nc3)c2c1)c1c(Cl)cncc1Cl
7

Then this molecule: C[C@@H](Oc1ccc2[nH]nc(-c3cnn(C4CCN(C5COC5)CC4)c3)c2c1)c1cc(F)cc(F)c1
8

Then this molecule: Cc1ncc(Cl)c([C@@H](C)Oc2ccc3[nH]nc(-c4cnn(C5CCNCC5)c4)c3c2)c1Cl
18

Then this molecule: CC(C)OC(=O)N1CCCC2(C1)CN(c1ncc(-c3n[nH]c4ccc(O[C@H](C)c5c(Cl)cncc5Cl)cc34)cn1)C2
9

Then this molecule: CCOC(=O)N1CC2(C1)CN(c1ncc(-c3n[nH]c4ccc(O[C@H](C)c5c(C)cnnc5C)cc34)cn1)C2
15

Then this molecule: C[C@@H](Oc1ccc2[nH]nc(-c3ccc(N4CCC5(CC4)CCS(=O)(=O)C5)nc3)c2c1)c1c(Cl)cncc1Cl
13

----------
Molecular target: FGFR2 (Homo sapiens (Human))
Assay: Kinase assay, binding constants (Kd), kinase-tagged T7 phage, qPCR
Items are presented alongside their recorded Kd.

1. C[C@@H](Oc1ccc2[nH]nc(-c3ccc(N4CCNC5(CC5)C4)nc3)c2c1)c1c(Cl)cncc1Cl | 1 to 20 nM
2. Cc1ncc(Cl)c([C@@H](C)Oc2ccc3[nH]nc(-c4ccc(N5CC6(CCOC6)C5)nc4)c3c2)c1Cl | 1 to 20 nM
3. C[C@@H](Oc1ccc2[nH]nc(-c3cnc(N4CC[C@@H](O)C4)c(C#N)c3)c2c1)c1c(Cl)cnc(F)c1Cl | > 300 nM
4. COc1cc2[nH]nc(-c3cnc(N4CCC4)c(S(C)(=O)=O)c3)c2cc1O[C@H](C)c1c(Cl)cncc1Cl | > 300 nM
5. Cc1ncc(Cl)c([C@@H](C)Oc2ccc3[nH]nc(-c4ccc(N5CCC[C@@H]5CO)nc4)c3c2)c1Cl | 20 to 100 nM
6. C[C@@H](Oc1ccc2[nH]nc(-c3cnc(N4CC(C)(N)C4)c(C#N)c3)c2c1)c1c(Cl)cncc1Cl | 100 to 300 nM

Next compound, Kd to be filled in.
Param item = C[C@@H](Oc1cc2c(-c3cnc(N4CC[C@@H]4C)c(C#N)c3)n[nH]c2cc1Cl)c1c(Cl)cncc1Cl ; retrieve measured Kd.
> 300 nM

----------
Items are presented alongside their recorded Kd.
Target: FGFR1 (Homo sapiens (Human), UniProt P11362)
Sequence (P11362 22-822): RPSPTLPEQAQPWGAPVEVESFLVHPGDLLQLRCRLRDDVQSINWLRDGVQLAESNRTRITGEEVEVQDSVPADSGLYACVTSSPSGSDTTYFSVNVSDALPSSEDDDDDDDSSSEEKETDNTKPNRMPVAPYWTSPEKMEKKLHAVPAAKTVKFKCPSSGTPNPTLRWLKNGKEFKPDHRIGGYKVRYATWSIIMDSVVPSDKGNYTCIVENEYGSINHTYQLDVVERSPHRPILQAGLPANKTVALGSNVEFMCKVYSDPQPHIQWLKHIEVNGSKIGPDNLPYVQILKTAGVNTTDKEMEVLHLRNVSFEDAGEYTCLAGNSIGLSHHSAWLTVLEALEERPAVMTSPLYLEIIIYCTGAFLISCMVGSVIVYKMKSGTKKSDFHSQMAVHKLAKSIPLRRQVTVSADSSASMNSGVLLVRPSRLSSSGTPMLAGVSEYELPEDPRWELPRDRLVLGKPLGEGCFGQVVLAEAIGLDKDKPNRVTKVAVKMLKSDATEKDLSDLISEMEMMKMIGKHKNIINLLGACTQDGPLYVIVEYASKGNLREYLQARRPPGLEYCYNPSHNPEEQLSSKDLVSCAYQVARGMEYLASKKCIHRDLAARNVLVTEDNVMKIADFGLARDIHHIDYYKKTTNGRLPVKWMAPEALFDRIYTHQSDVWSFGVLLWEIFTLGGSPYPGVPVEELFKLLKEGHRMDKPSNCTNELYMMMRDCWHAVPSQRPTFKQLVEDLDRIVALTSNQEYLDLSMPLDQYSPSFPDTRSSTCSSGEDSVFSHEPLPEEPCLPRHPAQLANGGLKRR
Test: Kinase assay, binding constants (Kd), kinase-tagged T7 phage, qPCR
Experimental: Kinase-tagged T7 phage strains were prepared in an E. coli host derived from the BL21 strain. E. coli were grown to log-phase and infected with T7 phage and incubated with shaking at 32° C. until lysis. The lysates were centrifuged and filtered to remove cell debris. […] Test compounds were prepared as 111λ stocks in 10000 DMS0. Kds were determined using an 11-point 3-fold compound dilution series with three DMSO control points. […] The kinase concentration in the eluates was measured by qPCR. […]

Some solved cases for reference:
1. C[C@@H](Oc1ccc2[nH]nc(-c3cnn(C4CCN(C(N)=O)CC4)c3)c2c1)c1c(Cl)cncc1Cl | 1 to 20 nM
2. COc1cc2[nH]nc(-c3cnc(N4CC5(C4)CN(S(C)(=O)=O)C5)c(F)c3)c2cc1O[C@H](C)c1c(Cl)cnc(C)c1Cl | 1 to 20 nM
3. C[C@@H](Oc1ccc2[nH]nc(-c3cnc(N4CCC(C(C)(C)O)CC4)c(C#N)c3)c2c1)c1c(Cl)cncc1Cl | 20 to 100 nM
4. C[C@H](Oc1ccc2[nH]nc(-c3ccc(N4CC5(C4)CN(S(C)(=O)=O)C5)nc3)c2c1)c1c(Cl)cnc(F)c1Cl | > 300 nM
5. C[C@@H](Oc1ccc2[nH]nc(-c3cnc(N4CCN(C(=O)N5CCN(C)CC5)CC4)nc3)c2c1)c1c(Cl)cncc1Cl | 1 to 20 nM
6. Cc1cc2[nH]nc(-c3cnc(N4CC5(C4)CN(S(C)(=O)=O)C5)c(C#N)c3)c2cc1O[C@H](C)c1c(Cl)cncc1Cl | 20 to 100 nM

Next compound, Kd to be filled in.
Param item = C[C@@H](Oc1ccc2[nH]nc(-c3cnn(C4CCN(C(=O)CN(C)C)CC4)c3)c2c1)c1c(Cl)cncc1Cl ; retrieve measured Kd.
1 to 20 nM

----------
Molecular target: FGFR3-BAIAP2L1 Ba/F3 cells (Homo sapiens, UniProt P22607)
Assay: Ba/F3 cell viability assay (CellTiter-Glo 2.0), FGFR3-BAIAP2L1 Ba/F3
Assay type: cell-based
Settings: FGFR3 > FGFR1 selectivity ratio in Ba/F3 FGFR fusion cell based assays
Field 'label' (enum: 1 / -1). Set to 1 when Ba/F3 FGFR1/FGFR3 Selectivity is strictly under 10; else -1.

Below are worked cases with known answers.
1) Cc1cnnc(C)c1[C@@H](C)Oc1ccc2[nH]nc(-c3cnc(N4CC5(CCS(=O)(=O)C5)C4)nc3)c2c1 [Example 141] | 1
2) CC(C)S(=O)(=O)N1CC2(CN(c3ncc(-c4n[nH]c5ccc(O[C@H](C)c6c(Cl)cncc6Cl)cc45)cn3)C2)C1 [Example 120] | 1

Find out if reported Ba/F3 FGFR1/FGFR3 Selectivity for C[C@@H](Oc1ccc2[nH]nc(-c3ccc(N4CCNCC4=O)nc3)c2c1)c1c(Cl)cncc1Cl [Example 37] is less than 10
-1

Then this compound: C[C@@H](Oc1ccc2[nH]nc(-c3cnc(N4CCN(S(C)(=O)=O)CC4)nc3)c2c1)c1c(Cl)cncc1Cl [Example 14]
-1

Then this compound: C[C@@H](Oc1ccc2[nH]nc(-c3ccc(N4CCC5(CCNC5=O)CC4)nc3)c2c1)c1c(Cl)cncc1Cl [Example 27]
-1

Then this compound: C[C@@H](Oc1ccc2[nH]nc(-c3ccc(N4CCC5(CC4)CN(C)CC(=O)N5C)nc3)c2c1)c1c(Cl)cncc1Cl [Example 98]
-1

Then this compound: C[C@@H](Oc1ccc2[nH]nc(-c3ccc(N4CCN(S(C)(=O)=O)CC4=O)nc3)c2c1)c1c(Cl)cncc1Cl [Example 39]
-1
